# Assay System: T1, human serum albumin (HSA), full length (human, UniProt P02768 25-609)
# T1 construct: mature; Immobilized on CM5 chip (SPR) or coated on plates (ELISA)
# T1 sequence (P02768 25-609): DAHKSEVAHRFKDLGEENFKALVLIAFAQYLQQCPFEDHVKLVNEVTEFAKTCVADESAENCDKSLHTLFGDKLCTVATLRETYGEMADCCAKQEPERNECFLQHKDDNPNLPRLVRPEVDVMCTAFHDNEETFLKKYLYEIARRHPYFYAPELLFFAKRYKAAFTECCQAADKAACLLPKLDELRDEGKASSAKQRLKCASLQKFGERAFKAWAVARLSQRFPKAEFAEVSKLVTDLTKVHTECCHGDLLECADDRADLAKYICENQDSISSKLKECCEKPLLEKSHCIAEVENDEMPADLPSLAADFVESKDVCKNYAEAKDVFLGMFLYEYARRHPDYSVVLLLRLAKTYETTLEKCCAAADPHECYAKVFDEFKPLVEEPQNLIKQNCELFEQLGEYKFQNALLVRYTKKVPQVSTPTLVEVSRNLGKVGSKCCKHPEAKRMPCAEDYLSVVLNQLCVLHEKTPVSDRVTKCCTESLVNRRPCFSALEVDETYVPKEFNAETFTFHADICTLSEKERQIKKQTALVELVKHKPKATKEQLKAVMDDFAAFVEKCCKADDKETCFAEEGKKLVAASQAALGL
# Experiment Notes: SPR off-rate ratio to parent ADX_7016_A01, HSA, 25 C
# Description: Measurements were conducted by SPR and ELISA. SPR was conducted as follows. Full length HSA or mouse albumin was immobilized on a Biacore T series CM5 chip at 15 ug/mL in 10 mM acetate buffer (pH 5.0) buffer using standard NHS/EDC coupling, to a surface density of approximately 1000-1100 RU. […]
I'd appreciate it if you could supply HSA kd/Parent kd values for the items below.
Enter a number only.

Entry under test: ADX_6727_F07 (Y44S/K85A) (designed binder, Full His6-tagged entry) MGVSDVPRDLEVVAATPTSLLISWDAPAVTVRYYRITYGREVQKYSDLGPLYISQEFTVPGSKSTATISGLKPGVDYTITVYAVTGSGESPASSAPISINYRTEIDKPSQHHHHHH . Its HSA kd/Parent kd was 6.5

Per the records, this binder ( ADX_7016_G01 (Y44S) (designed binder, Full His6-tagged entry; also called 6727_G02) MGVSDVPRDLEVVAATPTSLLISWDAPAVTVRYYRITYGREVQKYSDLGPLYISQEFTVPGSKSTATISGLKPGVDYTITVYAVTGSGESPASSKPISINYRTEIDKPSQHHHHHH ) has HSA kd/Parent kd equal to 5.6

The binder listed as ADX_6727_F10 (Y35A/K85T) (designed binder, Full His6-tagged entry) MGVSDVPRDLEVVAATPTSLLISWDAPAVTVRYYRITYGREVQKASDLGPLYIYQEFTVPGSKSTATISGLKPGVDYTITVYAVTGSGESPASSTPISINYRTEIDKPSQHHHHHH has a reported HSA kd/Parent kd of 4

Recorded result, ADX_6727_A07 (Y44S/K85T) (designed binder, Full His6-tagged entry) MGVSDVPRDLEVVAATPTSLLISWDAPAVTVRYYRITYGREVQKYSDLGPLYISQEFTVPGSKSTATISGLKPGVDYTITVYAVTGSGESPASSTPISINYRTEIDKPSQHHHHHH , HSA kd/Parent kd: 4.8
